Origin of the recorded values: patent US7642251B2

tested-on: HCV NS5B (Hepatitis C virus genotype 1b)
Construct: The cDNA encoding the NS5B protein of HCV, genotype 1b; made in house; host or cells: E. coli BL21(DE3)
Sequence (Q9WMX2 2420-2992): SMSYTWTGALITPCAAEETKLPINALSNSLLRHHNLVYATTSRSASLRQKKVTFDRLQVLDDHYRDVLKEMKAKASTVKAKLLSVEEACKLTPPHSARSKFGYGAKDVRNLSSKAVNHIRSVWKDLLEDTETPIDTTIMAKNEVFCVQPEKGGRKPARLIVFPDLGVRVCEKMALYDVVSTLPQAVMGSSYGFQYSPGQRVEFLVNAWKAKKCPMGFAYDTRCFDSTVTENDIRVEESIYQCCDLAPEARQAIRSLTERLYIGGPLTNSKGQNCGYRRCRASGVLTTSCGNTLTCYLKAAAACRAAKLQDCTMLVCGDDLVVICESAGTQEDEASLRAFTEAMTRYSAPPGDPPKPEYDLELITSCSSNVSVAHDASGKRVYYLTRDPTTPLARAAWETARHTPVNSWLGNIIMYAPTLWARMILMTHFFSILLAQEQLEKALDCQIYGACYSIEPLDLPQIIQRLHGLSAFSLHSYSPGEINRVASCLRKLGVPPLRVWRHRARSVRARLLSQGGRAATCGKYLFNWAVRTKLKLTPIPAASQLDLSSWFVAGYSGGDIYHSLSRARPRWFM
assay-protocol: Modified HCV NS5B RdRp enzyme assay (preincubation protocol)
Format: biochemical
condition: preincubation protocol; read-out: IC50
pIC50: −log10 of the molar value.
recorded-endpoint: pIC50

Input line: Reported pIC50 for HCV NS5B (Hepatitis C virus genotype 1b), given COc1ccc2c(c1)C=C(c1cccc(OCCN(C)C)c1)Cn1c-2c(C2CCCCC2)c2ccc(C(=O)O)cc21 ?
Output line: 6.30 to 8.34

Input line: Reported pIC50 for HCV NS5B (Hepatitis C virus genotype 1b), given COc1ccc2c(c1)C=C(c1ncccc1C(=O)N(C)C)Cn1c-2c(C2CCCCC2)c2ccc(C(=O)NS(=O)(=O)N(C)C)cc21 ?
Output line: 6.30 to 8.34

Input line: Reported pIC50 for HCV NS5B (Hepatitis C virus genotype 1b), given COc1ccc2c(c1)C=C(c1cnc(OC)c3[nH]ccc13)Cn1c-2c(C2CCCCC2)c2ccc(C(=O)O)cc21 ?
Output line: 6.30 to 8.34

Input line: Reported pIC50 for HCV NS5B (Hepatitis C virus genotype 1b), given COc1ccc2c(c1)C=C(c1ccc(N3CCOCC3)nn1)Cn1c-2c(C2CCCCC2)c2ccc(C(=O)NS(=O)(=O)N(C)C)cc21 ?
Output line: 6.30 to 8.34

###

tested-on: HCV NS5B (Hepatitis C virus genotype 1b)
Construct: The cDNA encoding the NS5B protein of HCV, genotype 1b; made in house; host or cells: E. coli BL21(DE3)
assay-protocol: Modified HCV NS5B RdRp enzyme assay (preincubation protocol)
Format: biochemical
condition: preincubation protocol; read-out: IC50
For each record, write down the corresponding IC50.

Input line: Reported IC50 for HCV NS5B (Hepatitis C virus genotype 1b), given COc1ccc2c(c1)C=C(c1cccc3c1OC(F)(F)O3)Cn1c-2c(C2CCCCC2)c2ccc(C(=O)O)cc21 ?
Output line: 4.58 to 500 nM

Input line: Reported IC50 for HCV NS5B (Hepatitis C virus genotype 1b), given COc1ccc2c(c1)C=C(c1cccc(N3CCOCC3)n1)Cn1c-2c(C2CCCCC2)c2ccc(C(=O)NS(=O)(=O)N(C)C)cc21 ?
Output line: 4.58 to 500 nM

Input line: Reported IC50 for HCV NS5B (Hepatitis C virus genotype 1b), given COc1ccc2c(c1)C=C(c1ccccc1S(=O)(=O)N1CCCC1)Cn1c-2c(C2CCCCC2)c2ccc(C(=O)NS(=O)(=O)C(C)C)cc21 ?
Output line: 4.58 to 500 nM

Input line: Reported IC50 for HCV NS5B (Hepatitis C virus genotype 1b), given COc1ccc2c(c1)C=C(c1ccccc1CS(C)(=O)=O)Cn1c-2c(C2CCCCC2)c2ccc(C(=O)NS(=O)(=O)C(C)C)cc21 ?
Output line: 4.58 to 500 nM

Input line: Reported IC50 for HCV NS5B (Hepatitis C virus genotype 1b), given COc1ccc2c(c1)C=C(c1cc([N+](=O)[O-])c3[nH]ccc3c1)Cn1c-2c(C2CCCCC2)c2ccc(C(=O)O)cc21 ?
Output line: 4.58 to 500 nM

Input line: Reported IC50 for HCV NS5B (Hepatitis C virus genotype 1b), given COc1ccc2c(c1)C=C(c1nccc(N(C)C)n1)Cn1c-2c(C2CCCCC2)c2ccc(C(=O)O)cc21 ?
Output line: > 500 nM

Input line: Reported IC50 for HCV NS5B (Hepatitis C virus genotype 1b), given COc1ccc2c(c1)C=C(c1ncccc1C(=O)N1CCCC1)Cn1c-2c(C2CCCCC2)c2ccc(C(=O)NS(=O)(=O)N(C)C)cc21 ?
Output line: 4.58 to 500 nM

Input line: Reported IC50 for HCV NS5B (Hepatitis C virus genotype 1b), given COc1ccc2c(c1)C=C(c1ccc3sc(C)nc3c1)Cn1c-2c(C2CCCCC2)c2ccc(C(=O)O)cc21 ?
Output line: 4.58 to 500 nM
